Measured IC50 of individual entries
target: S. aureus ATCC 29213 FabI (Staphylococcus aureus, UniProt Q6GI75); experiment: Staphylococcus aureus FabI enzyme inhibition assay; type: biochemical; details: NADH consumption, 30 minutes, read-out: FabI (300.235) IC50 (converted)
Sequence (Q6GI75 whole entry): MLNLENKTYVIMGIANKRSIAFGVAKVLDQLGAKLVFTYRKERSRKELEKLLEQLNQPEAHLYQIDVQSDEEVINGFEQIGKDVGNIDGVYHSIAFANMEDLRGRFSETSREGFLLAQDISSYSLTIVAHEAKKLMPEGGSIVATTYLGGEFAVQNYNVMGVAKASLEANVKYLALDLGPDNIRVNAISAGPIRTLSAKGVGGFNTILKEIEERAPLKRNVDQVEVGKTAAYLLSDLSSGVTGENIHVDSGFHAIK

COc1ccc(F)cc1C1=CCCN(C(=O)/C=C/c2cnc3c(c2)CNCC(=O)N3)CC1 [compound 31]: ~933 nM
CC(=O)Nc1ccc(/C=C/C(=O)N2CCC=C(c3ccccc3)CC2)cn1 [compound 6]: ~802 nM

Now consider the entry below.
input: Look up and report measured IC50 for this entry: O=C(Nc1ccc(/C=C/C(=O)N2CCC=C(c3ccccc3)CC2)cn1)C1CCCO1 (stereo not drawn) [compound 30]
output: ~1760 nM
